Assay: qHTS RealTime-Glo MT Cell Viability Assay in HEK293 cells - 16 hour (AID 1224872); also: nearly all actives have a fitted effect of over 50% in size
Details: RealTime-Glo luminescence; series mostly up to 76.8 µM
Records with an inconclusive call do not appear. Activity calls are given as the source filed them. Calls follow the shape of the dose curve; as a rule, active = well fitted cell-killing curve with a large enough effect in the repeat runs; inconclusive = weak or mixed curves, or effect the other way; inactive = flat fitted curve, though single readings scatter.
Outcomes: active, inactive

compound=CN(C)CCN(Cc1ccccc1)c1ccccn1 group_label=inactive
compound=CCC(C)(C)CC group_label=inactive
compound=CCCCc1ncc(/C=C(\Cc2cccs2)C(=O)O)n1Cc1ccc(C(=O)O)cc1 group_label=inactive
compound=CN1CCC(N(Cc2cccs2)c2ccccc2)CC1 group_label=inactive
compound=O=C(O)C1(C(=O)O)CCC1.[NH2-].[NH2-].[Pt+2] group_label=inactive
compound=CCCCC1=NC2(CCCC2)C(=O)N1Cc1ccc(-c2ccccc2-c2nn[nH]n2)cc1 group_label=inactive
compound=OCCNCc1ccccc1 group_label=inactive
compound=CCCCCCCCCOS(=O)(=O)O group_label=inactive
compound=Cc1ccc(N=Nc2c(O)c(C(=O)O)cc3ccccc23)c(S(=O)(=O)O)c1 group_label=inactive
compound=C[C@@H]1C[C@H]2[C@@H]3CCC4=CC(=O)C=C[C@]4(C)[C@@]3(F)[C@@H](O)C[C@]2(C)[C@@]1(O)C(=O)COC(=O)c1ccncc1 group_label=inactive
compound=CCOC(=O)C(F)(F)F group_label=inactive
compound=OCCN1CCN(CCCN2c3ccccc3C=Cc3ccccc32)CC1 group_label=inactive
compound="CC1CCC(=O)C1=O (centres undefined)" group_label=inactive
compound="CC[N+](C)(CC)CCOC(=O)C(O)(c1ccccc1)C1CCCCC1 (centres undefined)" group_label=inactive
compound=C#Cc1cccc(Nc2ncnc3cc(OCCOC)c(OCCOC)cc23)c1 group_label=inactive
compound=C1CCCNCCC1 group_label=inactive
compound=CN1CCC(=C2c3ccccc3Sc3ccccc32)CC1 group_label=inactive
compound="C[N+]1(C)CCC(OC(=O)C(O)(c2ccccc2)C2CCCC2)C1 (centres undefined)" group_label=inactive
compound=COc1cc(C(=O)OCCCN2CCCN(CCCOC(=O)c3cc(OC)c(OC)c(OC)c3)CC2)cc(OC)c1OC group_label=active
compound=O=C1c2ccccc2S(=O)(=O)N1CCCCN1CCN(c2ncccn2)CC1 group_label=inactive
compound=CCO[C@H](Cc1ccc(OCCc2ccc(OS(C)(=O)=O)cc2)cc1)C(=O)O group_label=inactive
compound=CCN(CC)c1ccc2c(-c3ccccc3C(=O)O)c3ccc(=[N+](CC)CC)cc-3oc2c1 group_label=active
compound=COc1ccc2cccc(CCNC(C)=O)c2c1 group_label=inactive
compound=C=C(C)C(=O)OCCO group_label=inactive

###

Assay: qHTS assay to identify small molecule agonists of H2AX - cell viability counter screen (AID 1224847);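 also: wild-type CHO-K1 cells; top concentration of the series differs between compounds; % is scaled to controls: 0 for no effect and ±100 for the full control effect; nearly all actives have a fitted effect of over 30% in size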
Settings: CHO-K1 viability, CellTiter-Glo luminescence, 3 h; series mostly up to 154 µM
Results filed as inconclusive are left out. The source made the active and inactive calls. Calls follow the shape of the full dose curve.
ATTRIBUTE MEASURED: activity change, negative = cytotoxicity

molecule="CC(CSC(=O)c1ccccc1)C(=O)N1C[C@@H](Sc2ccccc2)C[C@H]1C(=O)O (stereo not given in full)" reported="1.45% [at 31.6 µM] (inactive)"
molecule=C/C(=C(\CCOP(=O)(O)O)SC(=O)c1ccccc1)N(C=O)Cc1cnc(C)nc1N reported="0.972% [at 14 µM] (inactive)"
molecule=C/C=C/C(=O)CC reported="0.284% [at 31.6 µM] (inactive)"
molecule=Brc1c2ccccc2c(Br)c2ccccc12 reported="5.06% [at 14 µM] (inactive)"
molecule=NCC(=O)O reported="1.04% [at 31.6 µM] (inactive)"
